Where do the numbers come from? From ChEMBL document CHEMBL3734707.

system_name: 4-diphosphocytidyl-2-C-methyl-D-erythritol kinase (Burkholderia thailandensis (strain ATCC 700388 / DSM 13276 / CIP106301 / E264)) (UniProt Q2T1B6)
assay_procedure: Binding affinity to Burkholderia thailandensis E264 recombinant IspE (1 to 293 residues) assessed as maximum spectral signal at 250 uM by STD-NMR analysis
readout_type: %max (%)

smiles_input: Cn1ncc2c(NCCc3ccc(Cl)cc3)ncnc21
readout_type: %max
reported_measurement: 12

smiles_input: Cn1ncc2c(NCCc3cccc(F)c3)ncnc21
readout_type: %max
reported_measurement: 17

smiles_input: Cn1ncc2c(NCCc3ccc(F)cc3)ncnc21
readout_type: %max
reported_measurement: 11

smiles_input: Cn1ncc2c(NCc3ccc(Cl)cc3)ncnc21
readout_type: %max
reported_measurement: 12

smiles_input: Cn1ncc2c(NCc3ccc(Cl)c(Cl)c3)ncnc21
readout_type: %max
reported_measurement: 24

smiles_input: Cn1ncc2c(NCCc3c[nH]c4ccccc34)ncnc21
readout_type: %max
reported_measurement: 14

smiles_input: Cn1ncc2c(NCCc3ccccc3F)ncnc21
readout_type: %max
reported_measurement: 10

smiles_input: Cn1ncc2c(NCCc3ccc(Cl)cc3Cl)ncnc21
readout_type: %max
reported_measurement: 28

smiles_input: C[C@H](Nc1ncnc2c1cnn2C)c1ccccc1
readout_type: %max
reported_measurement: 17

====

system_name: 2-C-methyl-D-erythritol 4-phosphate cytidylyltransferase (Burkholderia thailandensis (strain ATCC 700388 / DSM 13276 / CIP106301 / E264))
assay_procedure: Binding affinity to Burkholderia thailandensis E264 recombinant IspD (1 to 236 residues) at 250 uM by STD-NMR analysis in presence of CDP
The source made the active and inactive calls. The rule behind the calls is not given here.
readout_type: Activity

smiles_input: Cn1ncc2c(NCc3ccc(Cl)c(Cl)c3)ncnc21
reported_measurement: Active

smiles_input: CC(C)(C)n1ncc2c(NCCc3c(F)cccc3Cl)ncnc21
reported_measurement: inactive

smiles_input: Cn1ncc2c(NCCc3ccc(Cl)cc3Cl)ncnc21
reported_measurement: Active

smiles_input: Cn1ncc2c(NCc3ccc(Cl)cc3)ncnc21
reported_measurement: Active

smiles_input: Cn1ncc2c(NCCc3c(F)cccc3Cl)ncnc21
reported_measurement: inactive

smiles_input: Cn1ncc2c(NCCc3ccc(O)cc3)ncnc21
reported_measurement: Active

====

system_name: 4-diphosphocytidyl-2-C-methyl-D-erythritol kinase (Burkholderia thailandensis (strain ATCC 700388 / DSM 13276 / CIP106301 / E264))
Sequence (whole entry): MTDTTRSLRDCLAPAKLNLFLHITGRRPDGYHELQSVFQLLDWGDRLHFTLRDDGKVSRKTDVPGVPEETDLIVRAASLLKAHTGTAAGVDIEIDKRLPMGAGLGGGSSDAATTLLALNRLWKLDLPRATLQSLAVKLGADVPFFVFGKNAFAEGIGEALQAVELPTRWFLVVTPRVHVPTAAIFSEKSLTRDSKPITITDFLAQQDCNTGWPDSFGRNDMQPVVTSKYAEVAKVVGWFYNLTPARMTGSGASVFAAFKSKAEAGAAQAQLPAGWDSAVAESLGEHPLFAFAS
assay_procedure: Binding affinity to Burkholderia thailandensis E264 recombinant IspE (1 to 293 residues) assessed as maximum spectral signal at 250 uM by STD-NMR analysis
# %max >= 20% gives yes, anything below gives no

smiles_input: Cn1ncc2c(NCc3ccccc3F)ncnc21
class_name: no
--
smiles_input: CC(C)(C)n1ncc2c(NCCc3c(Cl)cccc3Cl)ncnc21
class_name: no
--
smiles_input: Cn1ncc2c(NCc3ccccc3)ncnc21
class_name: no
--
smiles_input: Cn1ncc2c(NCCc3c(F)cccc3Cl)ncnc21
class_name: no
--
smiles_input: CC(C)(C)n1ncc2c(NCc3ccccc3)ncnc21
class_name: no
--
smiles_input: Cn1ncc2c(NCc3cccc(F)c3)ncnc21
class_name: yes
--
smiles_input: Cn1ncc2c(NCCc3ccc(O)cc3)ncnc21
class_name: no
--
smiles_input: CC(C)(C)n1ncc2c(NCc3ccco3)ncnc21
class_name: no
--
smiles_input: CC(C)(C)n1ncc2c(NCc3cccc([N+](=O)[O-])c3)ncnc21
class_name: yes
--
smiles_input: CC(C)(C)n1ncc2c(NCCc3c(F)cccc3Cl)ncnc21
class_name: no
--
smiles_input: CC(C)(C)n1ncc2c(NCc3ccc(Cl)c(Cl)c3)ncnc21
class_name: yes

====

system_name: 2-C-methyl-D-erythritol 4-phosphate cytidylyltransferase (Burkholderia thailandensis (strain ATCC 700388 / DSM 13276 / CIP106301 / E264))
assay_procedure: Binding affinity to Burkholderia thailandensis E264 recombinant IspD (1 to 236 residues) assessed as maximum spectral signal at 250 uM by STD-NMR analysis
Reported %max is given for each of the following compounds.

smiles_input: Cn1ncc2c(NCCc3ccc(Cl)cc3Cl)ncnc21
unit_name: %
%max: 8
--
smiles_input: Cn1ncc2c(NCc3ccc(Cl)c(Cl)c3)ncnc21
unit_name: %
%max: 6
--
smiles_input: CC(C)(C)n1ncc2c(NCCc3c(F)cccc3Cl)ncnc21
unit_name: %
%max: 10
--
smiles_input: Cn1ncc2c(NCCc3c(F)cccc3Cl)ncnc21
unit_name: %
%max: 6
--
smiles_input: Cn1ncc2c(NCc3ccc(Cl)cc3)ncnc21
unit_name: %
%max: 6
--
smiles_input: Cn1ncc2c(NCCc3ccc(O)cc3)ncnc21
unit_name: %
%max: 14

====

system_name: 4-diphosphocytidyl-2-C-methyl-D-erythritol kinase (Burkholderia thailandensis (strain ATCC 700388 / DSM 13276 / CIP106301 / E264))
Sequence (whole entry): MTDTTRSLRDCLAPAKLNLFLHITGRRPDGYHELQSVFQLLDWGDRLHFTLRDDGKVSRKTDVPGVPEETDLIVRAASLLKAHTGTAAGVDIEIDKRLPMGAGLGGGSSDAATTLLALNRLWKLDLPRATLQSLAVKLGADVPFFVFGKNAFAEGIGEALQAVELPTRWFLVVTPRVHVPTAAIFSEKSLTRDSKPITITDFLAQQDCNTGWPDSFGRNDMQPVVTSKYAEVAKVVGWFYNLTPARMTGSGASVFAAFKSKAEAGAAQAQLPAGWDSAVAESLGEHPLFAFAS
assay_procedure: Binding affinity to Burkholderia thailandensis E264 recombinant IspE (1 to 293 residues) at 250 uM by STD-NMR analysis in presence of ADP and CDP
The source made the active and inactive calls. The calls are words filed in the database; no cut-off is given here.
readout_type: Activity

smiles_input: Cn1ncc2c(NCCc3c(F)cccc3Cl)ncnc21
reported_measurement: inactive
//
smiles_input: Cn1ncc2c(NCc3ccccc3)ncnc21
reported_measurement: inactive
//
smiles_input: Cn1ncc2c(NCCc3ccc(O)cc3)ncnc21
reported_measurement: inactive
//
smiles_input: Cn1ncc2c(NCc3ccccc3F)ncnc21
reported_measurement: inactive
//
smiles_input: CC(C)(C)n1ncc2c(NCCc3c(F)cccc3Cl)ncnc21
reported_measurement: inactive
//
smiles_input: Cn1ncc2c(NCCc3cccc(F)c3)ncnc21
reported_measurement: inactive
//
smiles_input: Cn1ncc2c(NCc3ccc(Cl)c(Cl)c3)ncnc21
reported_measurement: inactive
//
smiles_input: C[C@H](Nc1ncnc2c1cnn2C)c1ccccc1
reported_measurement: inactive
//
smiles_input: Cn1ncc2c(NCCc3ccc(Cl)cc3Cl)ncnc21
reported_measurement: inactive
//
smiles_input: CC(C)(C)n1ncc2c(NCc3ccccc3)ncnc21
reported_measurement: inactive
//
smiles_input: Cn1ncc2c(NCc3cccc(F)c3)ncnc21
reported_measurement: inactive
//
smiles_input: Cn1ncc2c(NCCc3ccccc3F)ncnc21
reported_measurement: inactive
//
smiles_input: Cn1ncc2c(NCCc3ccc(F)cc3)ncnc21
reported_measurement: inactive
//
smiles_input: CC(C)(C)n1ncc2c(NCc3cccc([N+](=O)[O-])c3)ncnc21
reported_measurement: inactive
//
smiles_input: Cn1ncc2c(NCc3ccc(F)cc3)ncnc21
reported_measurement: inactive
//
smiles_input: CC(C)(C)n1ncc2c(NCCc3c(Cl)cccc3Cl)ncnc21
reported_measurement: inactive
//
smiles_input: Cn1ncc2c(NCCc3c[nH]c4ccccc34)ncnc21
reported_measurement: inactive
//
smiles_input: Cn1ncc2c(NCc3ccc(Cl)cc3)ncnc21
reported_measurement: inactive
//
smiles_input: CC(C)(C)n1ncc2c(NCc3ccc(Cl)c(Cl)c3)ncnc21
reported_measurement: inactive
//
smiles_input: Cn1ncc2c(NCCc3ccc(Cl)cc3)ncnc21
reported_measurement: inactive
//
smiles_input: CC(C)(C)n1ncc2c(NCc3ccco3)ncnc21
reported_measurement: inactive
